Reference source for all entries: PubChem BioAssay

procedure.details: RAM signaling pathway blockade in yeast – S. cerevisiae, Pdr1DBD-CYC8 efflux-inhibited sensitized strain, primary screen (AID 1298);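 further: 0% = DMSO untreated cells without growth and 100% = 10 µM 1-NA-PP1 full growth; higher means more yeast growth rescued from 5-FOA killing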
condition.notes: S. cerevisiae cbk1-as DSE1-URA3 strain, 5-FOA growth OD615, 2 d; at 50 µM; stronger effect = higher value
assay.metric: RAM network inhibition (%)
Give the value in % but do not write % after it.

Prompt: Answer with the recorded RAM network inhibition for the compound listed here: CC1=C(C(=O)Nc2ccccc2)C(c2ccco2)C(C#N)=C(SCc2ccccc2)N1 (stereo not drawn)
Response: 3.38

Prompt: Answer with the recorded RAM network inhibition for the compound listed here: CCCCSc1nc(N)c(NC(=O)c2ccco2)c(=O)[nH]1
Response: 0.8

Prompt: Answer with the recorded RAM network inhibition for the compound listed here: O=C(CSc1nc2ncccc2[nH]1)NCc1ccccc1
Response: 3.93
